Values from the supplement of paper PMC10567573

B1: USP39 (parent)
chain: TLSEAYIQIWKRRDNDETNQQGA

Variants of: B1
Protocol description: protein stability index of a GFP-peptide fusion (GPS, HEK-293T) (PSI 1-6); higher = more stable;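 also: lentivirally expressed fusions sorted by FACS into six bins by GFP to DsRed ratio, PSI derived from sequencing read proportions per bin multiplied by bin number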
Test conditions: c terminus: native
Here, each record is paired with measured protein stability index data.
The response must contain the number and no unit.

Here are 3 variants together with their reported answers.
>>> result("TLSEAYIQIWLRRDNDETNQQGA [K11L]")
2.32
>>> result("TLSEAYIQIWYRRDNDETNQQGA [K11Y]")
1.44
>>> result("TLSEAYYQIWKRRDNDETNQQGA [I7Y]")
2.18

Task: GET /values?readout=protein stability index&item= TLSEAYIQIWKRRDNDETNQQGR [A23R]
Result: 2.59

Task: Value lookup for protein stability index; key = TLSEAYIQIWKIRDNDETNQQGA [R12I]
Result: 3.09

Task: What does the data say about its protein stability index? Entry: TLSEAYIQVWKRRDNDETNQQGA [I9V]
Result: 2.67

Task: Record request: protein stability index value, item TLSEAYIQIWKRRDNDETNQQQA [G22Q]
Result: 4.13

Task: Using the record for TLSEAYIQIWKARDNDETNQQGA [R12A] , report its protein stability index.
Result: 2.15

Task: Dear colleague, I am looking for the recorded protein stability index of the following variant: TLSEAYIQIWKRRDNDENNQQGA [T18N]
Result: 2.41

Task: Recorded protein stability index of TLSEAYIQIWKRRDNDRTNQQGA [E17R] , please.
Result: 1.63

Task: // protein stability index lookup, key: TLSEAYFQIWKRRDNDETNQQGA [I7F]
Result: 2.27

Task: I would be grateful if you could share the reported protein stability index for TLSEVYIQIWKRRDNDETNQQGA [A5V] .
Result: 2.93

Task: Return reported protein stability index; argument: TLSEAYIQICKRRDNDETNQQGA [W10C]
Result: 2.45

Task: Recorded protein stability index of TLSEAYIQIWKRRDNDEMNQQGA [T18M] , please.
Result: 1.43

Task: // returns reported protein stability index for input TLSEAYIQIWKRRDNDKTNQQGA [E17K]
Result: 1.72

Task: // lookup protein stability index for TLSEAYIQIWKRRDNDITNQQGA [E17I]
Result: 1.93

Task: Item TLSEAYIQIWKCRDNDETNQQGA [R12C] has what recorded protein stability index?
Result: 2

Task: # get_value(readout='protein stability index', item= TLSEAYWQIWKRRDNDETNQQGA [I7W] )
Result: 3.49

Task: Need protein stability index, item TLKEAYIQIWKRRDNDETNQQGA [S3K]
Result: 2.68

Task: // returns reported protein stability index for input TLSEAYIKIWKRRDNDETNQQGA [Q8K]
Result: 3.05

Task: Would you mind telling me what protein stability index value was observed for TLSEAYIQIWKRRDNDETNIQGA [Q20I] ?
Result: 1.74

Task: Please give the measured protein stability index for this variant: TLSEAYIQIWCRRDNDETNQQGA [K11C]
Result: 3.3
